Hey, just so you know, these numbers are from ChEMBL document CHEMBL5518193.

test: Terminal half life in BALB/c mouse at 25 mg/kg, ip administered as liposome encapsulated form and measured upto 24 hrs by LC-MS/MS analysis; format: ADME, organism-based; settings: in vivo, read-out: beta t1/2 (converted)
assay endpoint: half-life (h)
Report the value in h with no unit label.

// query Data request, read-out half-life, for NCCN(Cc1ccc2ccccc2c1)c1nc(C(=O)Nc2ccc(O)cc2)cs1
// result 3.4
